Hey, just so you know, these numbers are from ChEMBL document CHEMBL1687906.

- Protocol Summary: Cmax in Crl:CD(SD) rat at 10 mg/kg, po
- Type: ADME, organism-based
- Set-up: dose 10 mg/kg, route oral
- Measurement Conditions: in vivo
The entries below come with measured Cmax values attached.
Measured Parameter: Cmax (ng/mL)

* CCC(CC)(NC(=O)c1cnn2c1NC(c1ccccc1)CC2(C)C)c1ccc(C)cc1.Cl (racemic) | 374
* CCC(CC)(NC(=O)c1cnn2c1NC(c1ccccc1)CC2(C)C)c1ccc(Cl)cc1.Cl (configuration not stated) | 374

---

- Protocol Summary: Metabolic stability in rat hepatic microsomes after 20 mins by HPLC/MS analysis
- Assay type: ADME
- Measurement Conditions: liver microsomes, read-out: Stability
The entries below come with measured log10 microsomal CLint values attached.
Measured Parameter: log10 microsomal CLint (log10 of the value in µL/min/mg)

• CCC(CC)(NC(=O)c1cnn2c1NC(c1ccccc1)CC2(C)C)c1ccccc1 (stereo not drawn) = 2.33
• CCC(CC)(NC(=O)c1cnn2c1NC(c1ccccc1)CC2(C)C)c1ccc(C(F)(F)F)cc1 (stereo not drawn) = 1.11
• CCC(CC)(NC(=O)c1cnn2c1NC(c1ccccc1)CC2(C)C)c1ccc(C)cc1 (stereo not drawn) = 2.21
• CCOC(=O)c1ccc(C(CC)(CC)NC(=O)c2cnn3c2NC(c2ccccc2)CC3(C)C)cc1 (stereo not drawn) = 2.14
• CCC(CC)(NC(=O)c1cnn2c1NC(c1ccccc1)CC2(C)C)c1ccc(OCc2ccccc2)cc1 (stereo not drawn) = 1.38
• CCC(CC)(NC(=O)c1cnn2c1NC(c1ccccc1)CC2(C)C)c1ccc(F)cc1 (stereo not drawn) = 2.11
• CCC(CC)(NC(=O)c1cnn2c1NC(c1ccccc1)CC2(C)C)c1ccc(OC)cc1 (stereo not drawn) = 2.20
• CCC(CC)(NC(=O)c1cnn2c1NC(c1ccccc1)CC2(C)C)c1ccc(Cl)cc1 (stereo not drawn) = 1.76
